B1: LINE1-full (parent)
chain: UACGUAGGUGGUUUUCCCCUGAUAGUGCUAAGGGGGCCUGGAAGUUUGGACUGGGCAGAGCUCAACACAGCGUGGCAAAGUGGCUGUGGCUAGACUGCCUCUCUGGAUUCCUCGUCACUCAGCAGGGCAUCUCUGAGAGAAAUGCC

variants of: B1; assay: self-cleavage, relative activity (ratio to wild type); higher = more cleavage; in vitro, sequencing; the parent is a self-cleaving ribozyme
EXPERIMENTAL READOUT: self-cleavage
Give the figure by itself; no unit, no explanation.

Take a look at these entries with their results.
>>> recorded_result("UACGUAGGUGGUUUUCCCCUGAUAGUGCUAAGGGGGCCUGGAAGUUUGUACUGGGCAGAGCUCAACACAGCGUGGCAAAGUGGCUGUGGCUAGACUGCCUCUCUGGAUUCCUCGUCACUCAGCAGGGCAUCCCUGAGAGAAAUGCC")
1.06
>>> recorded_result("UACGUAGGUGGUUUUCCCCUGAUAGUGCUAAGGGGGCCUGGAAGUUUGGACUGGGCAGAGCUCAACACAGCGUGGCAAUGUGGCUGUGGCUAGUCUGCCUCUCUGGAUUCCUCGUCACUCAGCAGGGCAUCUCUGAGAGAAAUGCC")
0.25
>>> recorded_result("UACGUAGGUGGUUUACCCCUGAUAGUGCCAAGGGGGCCUGGAAGUUUGGACUGGGCAGAGCUCAACACAGCGUGGCAAAGUGGCUGUGGCUAGACUGCCUCUCUGGAUUCCUCGUCACUCAGCAGGGCAUCUCUGAGAGAAAUGCC")
2.9
>>> recorded_result("UACGUAGGUGGUUUUCCCCUGAUAGUGCUAAGGGGGCCUGGAAGUUUGGACAGGGCAGAGCUCAACACAGCGUGGCAAAGUAGCUGUGGCUAGACUGCCUCUCUGGAUUCCUCGUCACUCAGCAGGGCAUCUCUGAGAGAAAUGCC")
1.63
>>> recorded_result("UACGUAGGUGGUUUUCCCCUGAUAGUGCUAAGGGGGCCUGGAAGUUUGGACUGGGCAGAGCUCCACACAGCGUGGCAAAGUGGCUGUGGCUAGACUGCCUCUCUGGAUUCCUCGUCACUCAGCAGGGCAUCUCUGAGAGAAAAGCC")
0.25

Inquiry: Consider the variant UACGUAGGUGGUUUUCCCCUGAUAGUGCUAAGGGGGCCUGGAAGUUUGGACUGGGCAGAGCCCAACACAGCGUGGCAAAGUGGCUGUGGCUAGACUGCCUCUCUGGAUUCCUUGUCACUCAGCAGGGCAUCUCUGAGAGAAAUGCC . State its measured self-cleavage.
Reply text: 0

Inquiry: Consider the variant UACGUAGGUGGUUUUCCCCCGAUAGUGCUAAGGGGGCCUGGAAGUUUGGACCGGGCAGAGCUCAACACAGCGUGGCAAAGUGGCUGUGGCUAGACUGCCUCUCUGGAUUCCUCGUCACUCAGCAGGGCAUCUCUGAGAGAAAUGCC . State its measured self-cleavage.
Reply text: 1.76

Inquiry: Consider the variant UACGUAGGUGGUUUUCCCCUGAUAGUGCUAAGGGGGCCUGGAAGUUUGGACUGGGCAGAGCUCAACACAGCGUGGCAAAAUGGCUGUGGCUAGACUGCCUCUCUGGAUUCCUCGUCACUCGGCAGGGCAUCUCUGAGAGAAAUGCC . State its measured self-cleavage.
Reply text: 2.16

Inquiry: Consider the variant UACGUAGGUGGUUUUCCCCUGAUAGUGCUAAGGGGGCCUGGAAGUUUGGGCUGGGCAGAGCUCAACACAGCGUGGCAGAGUGGCUGUGGCUAGACUGCCUCUCUGGAUUCCUCGUCACUCAGCAGGGCAUCUCUGAGAGAAAUGCC . State its measured self-cleavage.
Reply text: 0.53

Inquiry: Consider the variant UACGUAGGUGGUUUUCCCCUGAUAGUGCUAAGGGGGCCUGGAAGUUUGGGCUGGGCAGAGCUCAACACAGCGUGGCAACGUGGCUGUGGCUAGACUGCCUCUCUGGAUUCCUCGUCACUCAGCAGGGCAUCUCUGAGAGAAAUGCC . State its measured self-cleavage.
Reply text: 1.02

Inquiry: Consider the variant UACGUAGGUGGUUUUCCCCUGAUAGUGCUAAGGGGGCCUGGAAGUUUGGACUGGGCAGAGCUCGACACAGCGUGGCAAAGUGGCUGUGGCUAGACUGCCUCUCUGGAUUCCUCGUCACUCAGCAGGGCAUCUUUGAGAGAAAUGCC . State its measured self-cleavage.
Reply text: 0.06

Inquiry: Consider the variant UACGUAGGUGGUUUUCCCCUGAUAGUGCUAAGGGGGCCUAGAAGUUUGGACUGGGCAGAGCUCAACACAGCGAGGCAAAGUGGCUGUGGCUAGACUGCCUCUCUGGAUUCCUCGUCACUCAGCAGGGCAUCUCUGAGAGAAAUGCC . State its measured self-cleavage.
Reply text: 0.81

Inquiry: Consider the variant UACGUAGGUGGUUUUCCCCUGAUAGUGUUAAGGGGGCCUGGAAGUUUGGACUGGGCAGAGCUCUACACAGCGUGGCAAAGUGGCUGUGGCUAGACUGCCUCUCUGGAUUCCUCGUCACUCAGCAGGGCAUCUCUGAGAGAAAUGCC . State its measured self-cleavage.
Reply text: 0.33
